Test system: RAW 264.7 cells
Assay: In vitro toxicity (CellTiter-Glo cell viability), RAW 264.7;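 also: percent of untreated cells luminescence signal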
Format: cell-based
Conditions: cirRNA (SEQ ID NO: 1) LNPs; RAW 264.7 cells
VALUE_KIND: In vitro Viability RAW (%)

INSERT INTO measurements (compound, readout_unit, value_measured) VALUES
  ('CCCCCCCCC(CCCCCCCC)OC(=O)CCCCCCCN(CCCCCCCCOC(=O)C(CCCCCC)CCCCCCCC)CCNC(=O)OCCN(C)C (stereo not drawn)', '%', 55),
  ('CCCCCCCCCCCOC(=O)CCCCCN(CCCCCCCCOC(=O)C(CCCCCC)CCCCCCCC)CCOC(=O)NCCN1CCOCC1 (stereo not drawn)', '%', 76),
  ('CCCCC/C=C\C/C=C\CCCCCCCCN(CCCCCCCC/C=C\C/C=C\CCCCC)CCOC(=O)NCCN1CCCCC1', '%', 105),
  ('CCCCC/C=C\C/C=C\CCCCCCCCN(CCCCCCCC(=O)OC(CCCCCCCC)CCCCCCCC)CCCOC(=O)NCCCN(CC)CC', '%', 121),
  ('CCCCCCCCCCC(CCCCCCCC)COC(=O)CCCCCN(CCCCCC(=O)OCC(CCCCCCCC)CCCCCCCCCC)CCOC(=O)NCCN1CCOCC1 (stereo not drawn)', '%', 92),
  ('CCCCCCCCCCC(CCCCCCCC)COC(=O)CCCCCN(CCCCCC(=O)OCC(CCCCCCCC)CCCCCCCCCC)CCOC(=O)NCCCN(CC)CC (stereo not drawn)', '%', 90),
  ('CCCCCCCCCCCOC(=O)CCCCCN(CCCCCC(=O)OCCCCCCCCCCC)CCOC(=O)NCCN1CCCCC1', '%', 104),
  ('CCCCCCCCCCC(CCCCCCCC)COC(=O)CCCCCN(CCCCCC(=O)OCC(CCCCCCCC)CCCCCCCCCC)CCOC(=O)NCCN1CCCC1 (stereo not drawn)', '%', 79),
  ('CCCCCCCCCC(=O)OCCCCCCCCN(CCCCCCCCOC(=O)CCCCCCCCC)CCOC(=O)NCCN1CCN(C)CC1', '%', 95),
  ('CCCCCCCOC(=O)CCCCCCCCCN(CCCCCCCCCC(=O)OCCCCCCC)CCOC(=O)NCCN(C)C', '%', 81),
  ('CCCCCCCCC(CCCCCC)C(=O)OCCCCCCCCN(CCCCCCCCOC(=O)C(CCCCCC)CCCCCCCC)CCCNCCCN(CC)CC (stereo not drawn)', '%', 80),
  ('CCCCC/C=C\C/C=C\CCCCCCCCN(CCCCCCCC(=O)OC(CCCCCCCC)CCCCCCCC)CCCOC(=O)NCCN1CCCC1', '%', 121),
  ('CCCCC/C=C\C/C=C\CCCCCCCCN(CCCCCC(=O)OCC/C=C\CCCCC)CCOC(=O)NCc1ccncc1', '%', 137),
  ('CCCCC/C=C\C/C=C\CCCCCCCCN(CCCCCCCC/C=C\CCCCCCCC)CCOC(=O)NCCN1CCN(C)CC1', '%', 104),
  ('CCCCCCCCC(CCCCCCCC)OC(=O)CCCCCCCN(CCCCCCCCOC(=O)C(CCCCCC)CCCCCCCC)CCCNCCN(C)C (stereo not drawn)', '%', 65),
  ('CCCCCCCCCCC(CCCCCCCC)COC(=O)CCCCCN(CCCCCC(=O)OCC(CCCCCCCC)CCCCCCCCCC)CCOC(=O)NCCN1CCN(C)CC1 (stereo not drawn)', '%', 90),
  ('CCCCCCCCCCCOC(=O)CCCCCN(CCCCCCCCOC(=O)C(CCCCCC)CCCCCCCC)CCOC(=O)NCCN(C)C (stereo not drawn)', '%', 98),
  ('CCCCCCCCC(CCCCCC)C(=O)OCCCCCCCCN(CCCCCCCCOC(=O)C(CCCCCC)CCCCCCCC)CCOC(=O)NCCN(C)C (stereo not drawn)', '%', 100),
  ('CCCCCCCC/C=C\CCCCCCCCN(CCCCCCCCOC(=O)C(CCCCCC)CCCCCCCC)CCOC(=O)NCCCN(CC)CC (stereo not drawn)', '%', 90),
  ('CCCCC/C=C\C/C=C\CCCCCCCCN(CCCCCC(=O)OCC(CCCCCCCC)CCCCCCCCCC)CCOC(=O)NCCCN(C)C (stereo not drawn)', '%', 107),
  ('CCCCCCCCCC(=O)OCCCCCCCN(CCCCCCCCOC(=O)C(CCCCCC)CCCCCCCC)CCOC(=O)NCCCN1CCCCC1 (stereo not drawn)', '%', 83),
  ('CCCCC/C=C\C/C=C\CCCCCCCCN(CCCCCC(=O)OCC(CCCCCCCC)CCCCCCCCCC)CCOC(=O)NCc1ncc[nH]1 (stereo not drawn)', '%', 86),
  ('CCCCC/C=C\C/C=C\CCCCCCCCN(CCCCCCCC(=O)OC(CCCCCCCC)CCCCCCCC)CCOC(=O)NCCN1CCN(C)CC1', '%', 103),
  ('CCCCCCOC(=O)CCCCCCCCCCN(CCCCCCCCCCC(=O)OCCCCCC)CCOC(=O)NCCCN(CC)CC', '%', 9),
  ('CCCCC/C=C\C/C=C\CCCCCCCCN(CCCCCCCC(=O)OC(CCCCCCCC)CCCCCCCC)CCCOC(=O)NCCN1CCCCC1', '%', 132),
  ('CCCCCCCC/C=C\CCCCCCCCN(CCCCCCCCOC(=O)C(CCCCCC)CCCCCCCC)CCOC(=O)NCCCn1ccnc1 (stereo not drawn)', '%', 90),
  ('CCCCC/C=C\C/C=C\CCCCCCCCN(CCCCCC(=O)OCC(CCCCCCCC)CCCCCCCCCC)CCOC(=O)NCCN1CCOCC1 (stereo not drawn)', '%', 104);

* * *

Experiment: LNP size and polydispersity index (PDI) by dynamic light scattering
Type: physicochemical
Details: LNP with cirRNA (SEQ ID NO: 1)
I would appreciate it if you labelled entries yes (1) when PDI is 0.2 or higher, otherwise no (0).

INSERT INTO measurements (molecule, qualitative_label) VALUES
  ('CCCCCCCCC(CCCCCCCC)OC(=O)CCCCCCCN(CCCCCCCCOC(=O)C(CCCCCC)CCCCCCCC)CCOC(=O)NCCN1CCCC1 (centres unmarked) [Lipid 148]', 'no (0)'),
  ('CCCCCCCCCCC(CCCCCCCC)COC(=O)CCCCCN(CCCCCC(=O)OCC(CCCCCCCC)CCCCCCCCCC)CCOC(=O)NCCN1CCOCC1 (centres unmarked) [Lipid 174]', 'no (0)'),
  ('CCCCC/C=C\CCOC(=O)CCCCCN(CCCCCCCCOC(=O)C(CCCCCC)CCCCCCCC)CCOC(=O)NCCN1CCOCC1 (centres unmarked) [Lipid 188]', 'no (0)'),
  ('CCCCCCCC/C=C\CCCCCCCCN(CCCCCCCCOC(=O)C(CCCCCC)CCCCCCCC)CCOC(=O)NCCN1CCN(C)CC1 (centres unmarked) [Lipid 214]', 'yes (1)'),
  ('CCCCCCCCC(CCCCCC)C(=O)OCCCCCCCCN(CCCCCCCCOC(=O)C(CCCCCC)CCCCCCCC)CCCOC(=O)NCCN1CCCCC1 (centres unmarked) [Lipid 380]', 'no (0)'),
  ('CCCCCCCCCCC(CCCCCCCC)COC(=O)CCCCCN(CCCCCC(=O)OCC(CCCCCCCC)CCCCCCCCCC)CCCOC(=O)NCCN1CCC1 (centres unmarked) [Lipid 372]', 'yes (1)'),
  ('CCCCC/C=C\C/C=C\CCCCCCCCN(CCCCCC(=O)OCC(CCCCCCCC)CCCCCCCCCC)CCOC(=O)NCCN1CCOCC1 (centres unmarked) [Lipid 79]', 'yes (1)'),
  ('CCCCCCCCCC(=O)OCCCCCCCCN(CCCCCCCCOC(=O)CCCCCCCCC)CCOC(=O)NCCN(C)C [Lipid 202]', 'no (0)'),
  ('CCCCC/C=C\C/C=C\CCCCCCCCN(CCCCCCCC/C=C\C/C=C\CCCCC)CCOC(=O)NCCN1CCOCC1 [Lipid 36]', 'no (0)'),
  ('CCCCC/C=C\C/C=C\CCCCCCCCN(CCCCCCCC/C=C\C/C=C\CCCCC)CCOC(=O)NCCN1CCN(C)CC1 [Lipid 37]', 'no (0)'),
  ('CCCCCCCCCCCOC(=O)CCCCCN(CCCCCCCCOC(=O)C(CCCCCC)CCCCCCCC)CCOC(=O)NCc1ncc[nH]1 (centres unmarked) [Lipid 221]', 'no (0)'),
  ('CCCCCCCCCCC(CCCCCCCC)COC(=O)CCCCCN(CCCCCCCCOC(=O)C(CCCCCC)CCCCCCCC)CCCOC(=O)NCCN(C)C (centres unmarked) [Lipid 364]', 'yes (1)'),
  ('CCCCCCCOC(=O)CCCCCCCCCN(CCCCCCCCCC(=O)OCCCCCCC)CCOC(=O)NCCN(C)C [Lipid 120]', 'no (0)'),
  ('CCCCCCCCCCC(CCCCCCCC)COC(=O)CCCCCN(CCCCCC(=O)OCC(CCCCCCCC)CCCCCCCCCC)CCCOC(=O)NCc1ncc[nH]1 (centres unmarked) [Lipid 365]', 'no (0)');

The values you see were collected from patent US12691070B2.
